Taken from the NIST ThermoML archive (doi:10.1016/j.jct.2010.06.009).

procedure.summary: activity coefficient (dimensionless); of the first substance listed, at infinite dilution; xn = mol fraction of the nth substance listed
protocol.conditions: 303.1 K; 101 kPa; Liquid; Chromatography; x1 = 0
Below, each entry is listed with its recorded activity coefficient.
// no unit string in output, number only

The cases that follow already have their activity coefficient on record.
> print(dat)
                                   compound  recorded.number
1  Cc1ccc(C)cc1 [1,4-dimethylbenzene] + CCCCC[n+]1ccccc1.O=S(=O)([N-]S(=O)(=O)C(F)(F)F)C(F)(F)F             1.74
2  Cc1ccccc1C [1,2-dimethylbenzene] + CC[n+]1ccccc1.O=S(=O)([N-]S(=O)(=O)C(F)(F)F)C(F)(F)F             2.66
3  Cc1ccccc1 [toluene] + CCCCC[n+]1ccccc1.O=S(=O)([N-]S(=O)(=O)C(F)(F)F)C(F)(F)F             1.28

As a next step, examine the compound that follows.
// query Please report activity coefficient for the following compound: CC1CCCCC1 [methylcyclohexane] + CCCCC[n+]1ccccc1.O=S(=O)([N-]S(=O)(=O)C(F)(F)F)C(F)(F)F
// result 10.2

====

procedure.summary: activity coefficient (dimensionless); of the first substance listed, at infinite dilution; xn = mol fraction of the nth substance listed
protocol.conditions: 353.1 K; 101 kPa; Liquid; Chromatography; x1 = 0
readout.name: activity coefficient
// no unit string in output, number only

> print(dat)
                                   compound  recorded.number
1  CCc1ccccc1 [ethylbenzene] + CC[n+]1ccccc1.O=S(=O)([N-]S(=O)(=O)C(F)(F)F)C(F)(F)F             3.41

// query Please report activity coefficient for the following compound: Cc1ccccc1C [1,2-dimethylbenzene] + CC[n+]1ccccc1.O=S(=O)([N-]S(=O)(=O)C(F)(F)F)C(F)(F)F
// result 2.71

// query Please report activity coefficient for the following compound: C#CCCCC [1-hexyne] + CCCC[n+]1ccccc1.O=S(=O)([N-]S(=O)(=O)C(F)(F)F)C(F)(F)F
// result 2.82

// query Please report activity coefficient for the following compound: Cc1ccc(C)cc1 [1,4-dimethylbenzene] + CC[n+]1ccccc1.O=S(=O)([N-]S(=O)(=O)C(F)(F)F)C(F)(F)F
// result 3.11

// query Please report activity coefficient for the following compound: C#CCCCCCC [1-octyne] + CCCC[n+]1ccccc1.O=S(=O)([N-]S(=O)(=O)C(F)(F)F)C(F)(F)F
// result 6.8

// query Please report activity coefficient for the following compound: C#CCCC [1-pentyne] + CCCC[n+]1ccccc1.O=S(=O)([N-]S(=O)(=O)C(F)(F)F)C(F)(F)F
// result 1.68

====

procedure.summary: activity coefficient (dimensionless); of the first substance listed, at infinite dilution; xn = mol fraction of the nth substance listed
protocol.conditions: 353.4 K; 101 kPa; Liquid; Chromatography; x1 = 0
// label = T if activity coefficient is not less than 5, otherwise F

Some entries whose results are on file:
> print(dat)
                                   compound  group.label
1  C=CCCCCCC [oct-1-ene] + CCCCC[n+]1ccccc1.O=S(=O)([N-]S(=O)(=O)C(F)(F)F)C(F)(F)F            T
2  CCCCCCCC [octane] + CCCC[n+]1ccccc1.O=S(=O)([N-]S(=O)(=O)C(F)(F)F)C(F)(F)F            T
3  C1CCCCC1 [cyclohexane] + CCCC[n+]1ccccc1.O=S(=O)([N-]S(=O)(=O)C(F)(F)F)C(F)(F)F            F

// query Textbook exercise: given the entry CCCCCCC [heptane] + CCCC[n+]1ccccc1.O=S(=O)([N-]S(=O)(=O)C(F)(F)F)C(F)(F)F , state whether its activity coefficient is greater than or equal to 5.
// result T

// query Textbook exercise: given the entry CC1CCCCC1 [methylcyclohexane] + CCCC[n+]1ccccc1.O=S(=O)([N-]S(=O)(=O)C(F)(F)F)C(F)(F)F , state whether its activity coefficient is greater than or equal to 5.
// result T

// query Textbook exercise: given the entry C=CCCCC [hex-1-ene] + CCCCC[n+]1ccccc1.O=S(=O)([N-]S(=O)(=O)C(F)(F)F)C(F)(F)F , state whether its activity coefficient is greater than or equal to 5.
// result F

// query Textbook exercise: given the entry CCCCC [pentane] + CCCC[n+]1ccccc1.O=S(=O)([N-]S(=O)(=O)C(F)(F)F)C(F)(F)F , state whether its activity coefficient is greater than or equal to 5.
// result F
